# METHOD_NOTES: Antioxidant activity assessed as nitric oxide scavenging activity after 150 mins by spectrophotometric analysis
# Assay type: functional
# Set-up: concentration or dose not given beside the values
Hi there, I'd appreciate the recorded Activity for every entry that follows.
Give the quantity in %, number only.

Which measured Activity value corresponds to Cc1[nH]nc2c1c(=O)[nH]c1ccccc12 ?
18.5

And for Cc1noc2c1c(=O)[nH]c1ccccc12 ?
40.3

And for Cc1cc(C(C)(C)C)c(O)c(C(C)(C)C)c1 ?
92.1

And for CC1=NNC(=S)Nc2c1c(=O)[nH]c1ccccc21 ?
61.6

And for COc1ccc(O)c(C(C)(C)C)c1.COc1ccc(O)cc1C(C)(C)C ?
79.1

And for Cc1nc(=S)[nH]c2c1c(=O)[nH]c1ccccc12 ?
12

And for Cc1nc(=O)[nH]c2c1c(=O)[nH]c1ccccc12 ?
62.3

And for CC1=NNC(=O)Nc2c1c(=O)[nH]c1ccccc21 ?
16.1
